biological target: Mouse brain MAGL (Mus musculus, UniProt O35678); construct: from tissue; host or cells: brain of wild-type C57Bl/6J mice dosed by oral gavage; assay: Mouse brain proteomes from inhibitor treated mice (oral gavage, ABPP analysis); type: in vivo; settings: p.o., sacrificed 4 h following administration
Sequence (O35678 whole entry): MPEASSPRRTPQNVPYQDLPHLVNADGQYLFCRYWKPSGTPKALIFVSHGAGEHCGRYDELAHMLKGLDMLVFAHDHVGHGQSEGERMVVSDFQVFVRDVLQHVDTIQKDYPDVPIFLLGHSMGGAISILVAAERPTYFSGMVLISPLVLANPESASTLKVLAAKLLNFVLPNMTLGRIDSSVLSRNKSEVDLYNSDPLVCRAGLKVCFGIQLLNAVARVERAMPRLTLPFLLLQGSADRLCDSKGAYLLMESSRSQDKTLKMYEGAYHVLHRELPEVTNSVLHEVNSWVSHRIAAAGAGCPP
# reported inhibition at 5 mg/kg; entries follow

[[record]]
compound = "CC(=O)N1CCC2(CCN(c3ccccc3CN3CC4CN(C(=O)OC(C(F)(F)F)C(F)(F)F)CC4C3)C2)C1 (stereo not shown)"
measurement = "≤ 25%"

[[record]]
compound = "CCn1ncc(CN2CC3CN(C(=O)OC(C(F)(F)F)C(F)(F)F)CC3C2)c1C(=O)NC1CC1 (stereo not shown)"
measurement = "25 to 75%"


Give Mouse brain MAGL (Mus musculus, UniProt O35678) inhibition at 5 mg/kg for the following compound: CCn1ncc(CN2CC3CN(C(=O)OC(C(F)(F)F)C(F)(F)F)CC3C2)c1C(=O)NCCc1cccc(Cl)c1 (stereo not shown)
≤ 25%

Output reported inhibition at 5 mg/kg of the compound O=C(OC(C(F)(F)F)C(F)(F)F)N1CC2CN(Cc3cccc(Cl)c3N3CCC4(CCOC4)C3)CC2C1 (stereo not shown) on Mouse brain MAGL (Mus musculus, UniProt O35678).
25 to 75%

Under Mouse brain MAGL (Mus musculus, UniProt O35678), report inhibition at 5 mg/kg for CCn1cc(CN2CC3CN(C(=O)OC(C(F)(F)F)C(F)(F)F)CC3C2)c(-c2cccc(N3CCC3)c2)n1 (stereo not shown)
≤ 25%

Provide inhibition at 5 mg/kg, recorded with Mouse brain MAGL (Mus musculus, UniProt O35678), of CCn1cc(CN2CC3CN(C(=O)OC(C(F)(F)F)C(F)(F)F)CC3C2)c(-c2ccccc2N2CCOCC2)n1 (stereo not shown)
≥ 75%

Quote Mouse brain MAGL (Mus musculus, UniProt O35678) inhibition at 5 mg/kg for entry CS(=O)(=O)N1CC2(CCN(c3ccccc3CN3CC4CN(C(=O)OC(C(F)(F)F)C(F)(F)F)CC4C3)C2)C1 (stereo not shown) .
≤ 25%
